Test system: Leishmania major
Method: ST_JUDE: Cytotoxicity using Alamar Blue to measure viability of Leishmania major
Assay type: functional, organism-based
pEC50: −log10 of the molar value.
Measured Metric: pEC50

- Compound: "CC(C)CN1C(=O)c2ccccc2C(C(=O)Nc2cccc(C#N)c2)C1c1cccs1 (stereo unspecified)"
  Experimental Result: "< 4.70"
- Compound: "CO/C(O)=C1\\C(C)=NC2=C(C(=O)CC(c3ccc(OC)c(OC)c3)C2)C1c1ccccc1C (stereo unspecified)"
  Experimental Result: "< 4.75"
- Compound: "Cc1cccc(N2CCN(Cc3cc(Br)ccc3O)CC2)c1C"
  Experimental Result: "< 4.92"
- Compound: "OC(CNC1CCCC1)Cn1c2ccccc2c2ccccc21 (stereo unspecified)"
  Experimental Result: "< 4.76"
- Compound: "CC(C)CN1C(=O)c2ccccc2C(C(=O)Nc2ccc(F)c(Cl)c2)C1c1cccs1 (stereo unspecified)"
  Experimental Result: "< 4.74"
- Compound: "CC(=O)N(C1=C(N(C)C)C(=O)c2ccccc2C1=O)c1ccc(F)cc1"
  Experimental Result: "< 4.86"

---

Tested on: Plasmodium falciparum
Method: ST_JUDE: Cytotoxicity against Plasmodium falciparum SB-A6
Assay type: functional, organism-based
pEC50: −log10 of the molar value.
Measured pEC50 of individual entries

- Compound: "Cc1ccc(NC(=O)c2c(I)cnn2C)cc1[N+](=O)[O-]"
  Readout Relation: "<"
  pEC50: 4.93
- Compound: "COc1ccccc1C1CC2=NC(C)=C(C(=O)OC(C)C)C(c3ccc(Cl)cc3)C2=C(O)C1 (stereo unspecified)"
  Readout Relation: "="
  pEC50: 6.12
- Compound: "Cc1ccc(C)c(NC(=O)CC2C(=O)N(c3ccccc3)C(=S)N2Cc2ccco2)c1 (stereo unspecified)"
  Readout Relation: "="
  pEC50: 6.41
- Compound: "CN1/C(=C/c2cccc[n+]2C)Sc2ccccc21"
  Readout Relation: "="
  pEC50: 6.17
- Compound: "CC(=O)N(C1=C(N(C)C)C(=O)c2ccccc2C1=O)c1ccc(F)cc1"
  Readout Relation: "="
  pEC50: 7.53
- Compound: "COc1cc(OC)c(NC(=O)C2c3ccccc3C(=O)N(CC(C)C)C2c2cccs2)cc1Cl (stereo unspecified)"
  Readout Relation: "="
  pEC50: 7.08
- Compound: "COc1ccc(C2CC3=NC(C)=C(C(=O)OC(C)C)C(c4ccccc4Cl)C3=C(O)C2)cc1OC (stereo unspecified)"
  Readout Relation: "="
  pEC50: 7.46
- Compound: "Cc1ccc(C(O)(CNCc2ccccc2)c2ccc(Br)cc2)cc1 (stereo unspecified)"
  Readout Relation: "="
  pEC50: 5.46
- Compound: "CCN1/C(=C/c2cccc[n+]2C)Sc2ccc(OC)cc21"
  Readout Relation: "="
  pEC50: 5.81
- Compound: "CCc1ccccc1NC(=O)C1c2ccccc2C(=O)N(CC(C)C)C1c1cccs1 (stereo unspecified)"
  Readout Relation: "="
  pEC50: 6.00
- Compound: "O=C1C(Nc2ccc(Br)cc2)=C(n2nnc3ccccc32)C(=O)c2ccccc21"
  Readout Relation: "="
  pEC50: 7.10
- Compound: "COc1ccc(C2CC(=O)C3=C(C2)NC(=O)CC3c2ccc(OC)c(OC)c2)cc1 (stereo unspecified)"
  Readout Relation: "="
  pEC50: 5.63
- Compound: "CO/C(O)=C1\\C(C)=NC2=C(C(=O)CC(c3ccc(OC)c(OC)c3)C2)C1c1ccccc1F (stereo unspecified)"
  Readout Relation: "="
  pEC50: 6.25
- Compound: "CCOc1cc(C2CC(=O)NC3=C2C(=O)CC(c2ccccc2Cl)C3)cc(Cl)c1O (stereo unspecified)"
  Readout Relation: "="
  pEC50: 5.94
- Compound: "CCCCCCn1c(=N)n(CC(O)COc2ccccc2C)c2ccccc21 (stereo unspecified)"
  Readout Relation: "="
  pEC50: 5.33
- Compound: "Oc1ccc(Br)cc1CN1CCN(C2CC3CCC2C3)CC1 (stereo unspecified)"
  Readout Relation: "="
  pEC50: 6.02
- Compound: "COc1ccc(C2CC(=O)C3=C(C2)NC(=O)CC3c2ccc(Br)cc2)cc1OC (stereo unspecified)"
  Readout Relation: "="
  pEC50: 5.83
- Compound: "CCCCCCCCCC[n+]1ccccc1"
  Readout Relation: "="
  pEC50: 5.54
- Compound: "Fc1ccc(Nc2nc(NCc3ccccc3)c3ccccc3n2)cc1"
  Readout Relation: "="
  pEC50: 6.49
- Compound: "CC1=NC2=C(C(=O)CC(c3ccc(Cl)cc3)C2)C(c2ccc(F)cc2)/C1=C(\\O)OC(C)C (stereo unspecified)"
  Readout Relation: "="
  pEC50: 6.34
- Compound: "CN1C(=O)/C(=C\\c2ccccc2Cl)Sc2ccc(C(=O)NC3CCN(Cc4ccccc4)CC3)cc21"
  Readout Relation: "="
  pEC50: 6.14
- Compound: "CCCCCOc1ccc(N(C(C)=O)C2=C(N3CCOCC3)C(=O)c3ccccc3C2=O)cc1"
  Readout Relation: "="
  pEC50: 7.22
- Compound: "c1ccc(CCNc2ccnc3cc4ccccc4cc23)cc1"
  Readout Relation: "="
  pEC50: 6.77
- Compound: "CCOC(=O)C1=C(C)N=c2s/c(=C/c3ccccc3O)c(=O)n2C1c1ccccc1 (stereo unspecified)"
  Readout Relation: "="
  pEC50: 6.29
- Compound: "COCCO/C(O)=C1\\C(C)=NC2=C(C(=O)CC(c3ccc(OC)c(OC)c3)C2)C1c1ccccc1F (stereo unspecified)"
  Readout Relation: "="
  pEC50: 6.50
- Compound: "COc1ccc(O)c(CN2CCN(c3cc(C)ccc3C)CC2)c1"
  Readout Relation: "="
  pEC50: 5.89
- Compound: "Cc1oc2c(c1C(=O)NCCC(C)C)C(=O)c1ccccc1C2=O"
  Readout Relation: "="
  pEC50: 5.95
- Compound: "O=S(=O)(c1ccc(Cl)cc1)N1CCN(C(=S)NCc2ccco2)CC1"
  Readout Relation: "="
  pEC50: 5.35
- Compound: "CC(CNC(=O)c1cn(C2CCCCC2)cc(C(=O)NC(C)(C)C)c1=O)c1ccccc1 (stereo unspecified)"
  Readout Relation: "="
  pEC50: 6.96
- Compound: "OC(CNC1CCCC1)Cn1c2ccccc2c2ccccc21 (stereo unspecified)"
  Readout Relation: "="
  pEC50: 5.50
- Compound: "C[n+]1ccccc1/C=C/c1ccc([N+](=O)[O-])cc1"
  Readout Relation: "="
  pEC50: 5.97
- Compound: "CCCCOc1ccc(N(C(C)=O)C2=C(N3CCCCC3)C(=O)c3ccccc3C2=O)cc1"
  Readout Relation: "="
  pEC50: 6.98
- Compound: "CCCO/C(O)=C1\\C(C)=NC2=C(C(=O)CC(c3ccc(OC)c(OC)c3)C2)C1c1ccccc1Cl (stereo unspecified)"
  Readout Relation: "="
  pEC50: 7.58
- Compound: "Cn1c(=O)c2c(-c3ccc(C(C)(C)C)cc3)n(-c3cc(Cl)ccc3O)cc2n(C)c1=O"
  Readout Relation: "="
  pEC50: 6.01
- Compound: "CC(O)(c1ccc(Cl)cc1)C(CN1CCCCC1)c1ccccc1 (stereo unspecified)"
  Readout Relation: "="
  pEC50: 5.37
- Compound: "C#CC[n+]1ccn2c(C)ccc2c1CC"
  Readout Relation: "="
  pEC50: 5.60
